B1: CPEB3 Ribozyme (parent)
chain: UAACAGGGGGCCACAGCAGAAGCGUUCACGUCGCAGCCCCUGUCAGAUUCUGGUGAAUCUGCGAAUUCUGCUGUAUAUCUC

# Variants of: B1
# Assay Method Text: self-cleavage, relative activity (ratio to wild type); higher = more cleavage; in vitro, sequencing
Group membership follows self-cleavage per the scheme A (below 0.2), B (0.2 to below 0.4), C (0.4 or more)

Band for "UAUCAGGGGGCCACAGCAGAAGCGUUCACGUCGCAGCCCCUUUCAGAUUCUGGUGAAUCUGCGAAUUCUGCUGUAUAUCUC" ?
A

For the record "UAACAGGGGGCCACAGCAGAAGCGUUCACGUCGCAGCCCCUGUCAGAUUUUGGUGAACCUGCGAAUUCUGCUGUAUAUCUC" , report the class its self-cleavage corresponds to.
B

Consider "UAACAUGGGGCCACAGCAGAAGCGUUCACGUCGCAGCCCCUGUCUGAUUCUGGUGAAUCUGCGAAUUCUGCUGUAUAUCUC" . To which self-cleavage class does it belong?
A

For "UAACAUGGGGCCACAGCAGAAGCGUACACGUCGCAGCCCCUGUCAGAUUCUGGUGAAUCUGCGAAUUCUGCUGUAUAUCUC" , which self-cleavage bin applies?
A

Kindly identify the class of "UAACAGGGGGCCACAGCAGAAGCGUUCACGUCGCAGCCCCUGUCAGAUUCUGGUGAAUCUGCGGCUUCUGCUGUAUAUCUC" .
B

Kindly state the category for this variant: "UAACAGGGGCCCACAGCAGAAGCGUUCCCGUCGCAGCCCCUGUCAGAUUCUGGUGAAUCUGCGAAUUCUGCUGUAUAUCUC"
A

Which category does the recorded self-cleavage put "UAACAGGGGGCCACAGCAGAAGCGUUCACGGCGCAGCCCCUGUCAGAUUCUGGUAAAUCUGCGAAUUCUGCUGUAUAUCUC" in?
B

Exam item: assign "UAUCAGUGGGCCACAGCAGAAGCGUUCACGUCGCAGCCCCUGUCAGAUUCUGGUGAAUCUGCGAAUUCUGCUGUAUAUCUC" to the correct category.
A

Please report the category associated with "AAACAGGGGGCCACAGCAGAAGCGUUCACGUCGCAGCCCCCGUCAGAUUCUGGUGAAUCUGCGAAUUCUGCUGUAUAUCUC" , nothing else.
C

Into which category would you place "UAACAGGGGGCCACAGCAGAAGCGUUCACGUCGCGGCCCCCGUCAGAUUCUGGUGAAUCUGCGAAUUCUGCUGUAUAUCUC" ?
C

Given "UAACAGGGGGCCACAGCAGAAGCGUUCACGUCGAAGCCCCUGUCAGAUUCUGGUGAAUCUGCGAAUUCCGCUGUAUAUCUC" , name the class its self-cleavage places it in.
A

In plain terms, what class is "UAUCAGGGGGCCACAGCAGCAGCGUUCACGUCGCAGCCCCUGUCAGAUUCUGGUGAAUCUGCGAAUUCUGCUGUAUAUCUC" ?
B

Please let me know in which category the item "UAACAGGGGGCCACUGCAGAGGCGUUCACGUCGCAGCCCCUGUCAGAUUCUGGUGAAUCUGCGAAUUCUGCUGUAUAUCUC" belongs.
B

State the band of "UAACAGGGGGCCACAGCAGAAGCGUUCACGUCGCAUCCCCUGUCAGAUUCUGGUGAAUCCGCGAAUUCUGCUGUAUAUCUC"
A

Category of "UAACAGGGGGCCACAGCAGAAGCGUUCACGUCGCAGCCCCUGUCCGAUUCUGGUGAAUCUGCGAAUUCUGCUGUAUACCUC" :
C

Band for "UAACAGGGGGCCACAGCAGAAGCGUUCACGUCGCAGCCCCUGUCAGAUUCUGGUGAAUCUGCGAAUUCUGCUGUAAAUAUC" ?
C

Just checking, what class would you give "UAACAGGGGGCCACAUCAGAAGCGUUCACGUCGCAGCCCCUGUCAGUUUCUGGUGAAUCUGCGAAUUCUGCUGUAUAUCUC" here?
A

Class label required: "UAACAGGGGGCCGCAGCAGAAGCGUUCACGUCGCAGCCCCUGUCAGAUUCUGGUGAAUCUGCGGAUUCUGCUGUAUAUCUC"
C

Kindly identify the class of "UAACAGGGGGCCACAGCAGAAGCGUUCACGUCGCAGCCCUUGUCAGAUUCUGGUGAAUCUGCGAAUUCGGCUGUAUAUCUC" .
C

Bin this entry: "UAACUGGGGGCCACAGCAGAAGCGUUCACGUCGCAGCCCCUGUCAGAUUCUGGAGAAUCUGCGAAUUCUGCUGUAUAUCUC"
C

Categorize the following entry: "UAACAGGGGGCCACAGCAGAAGCGUUCACGUCGCAGCCCCUGUCAUAUUCUGGUGAAUCUGCGAAUUCUGCUGUAUAUCCC"
B

Form: Item = "UAACAGGGGGCCACAGCAGAAGUGUUCACGUCGCAGCCCCUGUCAGAUUCUGGUGAAUCUGCGAAUUCUGCUGAAUAUCUC" ; Class = ?
C

Band assignment needed for "UAACAGGGGGCCACAGCAGAAGCGUUCACGUCGCAGCCCCUGUCAGAUUCUGGUGUAUCUGCGAAUUCUGCUGUAUAGCUC" please.
C

Place this variant in its band: "UAACAGGAGGCCACAGCAGAAGCGUUCACGUCGCAGCCCCUGUCAGAUUCUGGUGAAUCUGCGAAUUCUGCUGUAUAUCUC"
B

# bin lookup: classify "UAACAGGGGGCCACAGCAGAAGCGUACACGUCGCAGCCCCUGUCAGAUUCUGGUGAAUCUGCGAAUUCUGCUGUAUGUCUC" by its self-cleavage
C

Input "UAACAGGGGACCACAGCAGAAGCGUUCAUGUCGCAGCCCCUGUCAGAUUCUGGUGAAUCUGCGAAUUCUGCUGUAUAUCUC" ; output its category
A

State the class of the variant shown: "UAACAGGGGGCCACAGUGGAAGCGUUCACGUCGCAGCCCCUGUCAGAUUCUGGUGAAUCUGCGAAUUCUGCUGUAUAUCUC"
B

Kindly state the category for this variant: "UAACAGGGGGCCACAGCAGAAGCGAUCACGUCGCAGCCCCUGUCAGAUUCUGGUGAAUCUGCGAACUCUGCUGUAUAUCUC"
B

Which band does "UGACAGGGGGCCACAGCAGAAGCGUUCACGUCGCAGCCCCUGUCAGAUUCUGGUGAUUCUGCGAAUUCUGCUGUAUAUCUC" fall in?
B

Each variant maps to one class by self-cleavage. Which class for "UAACAGGGGGCCACAGCAGAAGCGUUCACGUCGCAGCCCCUGUCAGAUUCUGGUGAAUCUGCGAAUUCUACUGUACAUCUC" ?
C

Category lookup for the variant "UAACAGGGGGCCACAGCAGAAGCGUUCUCGUCGCAGCCCCUGUCAGAUUCUGGUGAAUCUGCGAAUUCUGCAGUAUAUCUC"
C

Hi there! Could you help me figure out the category for "UAACAGGGGGCCACAGCAGAAGCGUUCACGUCGCAGCCCCUGUCAGGUUUUGGUGAAUCUGCGAAUUCUGCUGUAUAUCUC" please?
C

Lab log: "UAACAGGGGGCCACAGCAGAAGCGUUCAGGUCGCAGCCCCUGUCAGAUUCUGGUGAAUCUGCGAAUUCUGCUGUAUAUCUA" — assign self-cleavage category
B

Entry "UAACAGGGGGCCACAGAAGAAGCGUUCACGUCGCAGCCCCUGUCAGAUUCUGGUGAAUCUGCGAAUUCUGCUGUAUAUCGC" belongs to which category?
B

# bin lookup: classify "UAACAGGGGGCCACAGCAGAAGCGAUCACGUCGCAGCCCCUGUCAGAUUCUGGUGAAUCUGCGAAUUCUGCUGUAUAUCCC" by its self-cleavage
B

Class label required: "UAACAGGGGGCCACAGCAGAAGCGUUCACGUCGCAGCCCCUGUCAGACUCUGGUGAAGCUGCGAAUUCUGCUGUAUAUCUC"
B

Lab note: which band did "UAACAGGGGGCCACAGCAGAAGCGAUCACGUCGCAGCCCCUGUCAGAUACUGGUGAAUCUGCGAAUUCUGCUGUAUAUCUC" land in?
A

Class label required: "UAACAGGGGGCCAUAGCAGAAGCGUUCACGUCGCAGCCCCUGUCAGAUUCUGGUGAAUCUGCGAAUUCUGCUGUGUAUCUC"
C

The entry to classify is "UAACAGGGGGCCACAGCAGAAGCGUUCGCGUCGCAGCCCCUGUCAGAUUCUGGUGAAUCUGUGAAUUCUGCUGUAUAUCUC" ; which class holds it?
B

Class (by measured self-cleavage) for "UAACAGGGGGGCACAGCAGAAGCGUUCACGUCGCAGCCCCUGUCAGAUUCUGGUGAAUCUGCGAAAUCUGCUGUAUAUCUC"
C

Returns: class label. Input: "UAACAGGGGGCCACAGCACAAGCGUUCACGUCGCAGCCCUUGUCAGAUUCUGGUGAAUCUGCGAAUUCUGCUGUAUAUCUC"
B

Which self-cleavage category applies to "UAACAGGGGGCCACAGCAGAAGCGUCCACGUAGCAGCCCCUGUCAGAUUCUGGUGAAUCUGCGAAUUCUGCUGUAUAUCUC" here?
B

Determine which band this variant sits in: "UAACAGGGGGCCACAGCAGAAGCGUUCACGUCGCAUCCCCUGUCAGAUUCUGGUGAAUCUGCGAAUUCUGCUAUAUAUCUC"
B

// return the class label for "AAACAGGGGGCCACAGCAGAAGUGUUCACGUCGCAGCCCCUGUCAGAUUCUGGUGAAUCUGCGAAUUCUGCUGUAUAUCUC"
B

Please let me know in which category the item "UAACAGGGGGCCACAGCAGAAGCGUUCACGUCGCAGCCCCUGUCAGAUUCCGGUGAAUCUGCGAAUUCUGCUGUCUAUCUC" belongs.
C

Any idea which band "UGACAGGGGGCCACAGCAGAAGCGUUCACGUCGCAGCCCCUGUCAGAUUCUGGUGAAUAUGCGAAUUCUGCUGUAUAUCUC" is in?
B

Note: place this variant into its band. Item: "UAACAGGGGGUCACAGCAGAAGCGUUCACGUCGCAGCCCCUGUCAGAUACUGGUGAAUCUGCGAAUUCUGCUGUAUAUCUC"
B

Which category fits this record: "UAACAGGGGGCCACAGCAGAAGCGUUCACGUCGCAGCCCAUGUCAGCUUCUGGUGAAUCUGCGAAUUCUGCUGUAUAUCUC"
A

Where would "UAACAGGGGGCCACAGCAGUAGCGUUCACGUCGCAGCCCCUGUCAGAUUCUGGUGAAUCUGUGAAUUCUGCUGUAUAUCUC" land among the classes by reported self-cleavage?
A

Please classify: "UAACAGGGGGCCAAAGCAGAUGCGUUCACGUCGCAGCCCCUGUCAGAUUCUGGUGAAUCUGCGAAUUCUGCUGUAUAUCUC"
B

// bin(item) where item = "UAACAGGGGGCCACAGCAGAAGCGUUCACGUCGCAGCCCCUGUCAGAUCCUGGUGAAUCUGCGAAUUCUGCUGUAUAACUC"
C

Categorize the following entry: "UAACAGGGGGCCACAGCAGUAGCGUUCACGUCGCAGCCCCUGUCAGAUUCUGGUGAAUCUGCGAACUCUGCUGUAUAUCUC"
B

Hi, small favor: classify "UAACAGGGGGCCACAGCAGAAGCGUCCACGUCGCAGCCCUUGUCAGAUUCUGGUGAAUCUGCGAAUUCUGCUGUAUAUCUC" by its self-cleavage when you get a moment.
B

Exam item: assign "UAACAGGGGGCCACAGUAGAAGCGUUCACGUCGCAGCCCCUGUCAGAUUCUGGUGGAUCUGCGAAUUCUGCUGUAUAUCUC" to the correct category.
C

Which class holds "UAACAGGUGGCCACAGCAGAAGCGUCCACGUCGCAGCCCCUGUCAGAUUCUGGUGAAUCUGCGAAUUCUGCUGUAUAUCUC" ?
A

Class (by measured self-cleavage) for "UAACAGGGGGACACAGCAGAAGCGUUCACGUCGCGGCCCCUGUCAGAUUCUGGUGAAUCUGCGAAUUCUGCUGUAUAUCUC"
C

Which of the defined bands does the recorded self-cleavage of "UAACAGGGGGCCACAGCAGAAGCGUUCACGUCGCAGCCCCUGUCAGAUUCUGGUGAAUCUGCGAAUUCUGCUGUAUUUCUA" sit within?
C

Lab note: which band did "UAACAGGGGGCCACAGCAGAAGCGUUCACGUCCCUGCCCCUGUCAGAUUCUGGUGAAUCUGCGAAUUCUGCUGUAUAUCUC" land in?
A

Looking at "UAACAGGGGGCCACAGCAGAAGCGAUCACGUCGCAGCCCCUGUCAGAUUCUGGUGAAUCUGCAAAUUCUGCUGUAUAUCUC" , which class would you pick?
B
